# System: human TMD-8 diffuse large B-cell lymphoma cells
# Measurement description: BTK-dependent cell proliferation in human TMD-8 cells (CellTiter-Glo)
# Type: cell-based
# Condition info: TMD8, 72 h, TMD-8 DLBCL cells, 3 days, absolute IC50
pIC50: −log10 of the molar value.
Binary call on pIC50: 1 from 7 upward, -1 beneath that.

Answered cases to consult:
Does the molecule "CCOc1cc(CNC(=O)c2cc(F)ccc2OC)ccc1-n1nc(C(C)C)c(N)c1C(N)=O" have recorded pIC50 that is 7 or more? -1

Does the molecule "COc1ccc(F)cc1C(=O)NCc1ccc(-n2nc(C(C)C)c(N)c2C(N)=O)cc1" have recorded pIC50 that is 7 or more? 1

# ---- query molecule ----
Does the molecule "COc1ccc(F)cc1C(=O)NCc1ccc(-n2nc(C3CCCC3)c(N)c2C(N)=O)cc1" have recorded pIC50 that is 7 or more? 1
